This section presents variants with their documented protein stability index values.
B1: FAM98B (parent)
chain: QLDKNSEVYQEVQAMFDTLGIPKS

Variants of: B1
PROTOCOL_DESCRIPTION: protein stability index of a GFP-peptide fusion (GPS, HEK-293T) (PSI 1-6); higher = more stable;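 also: lentivirally expressed fusions sorted by FACS into six bins by GFP to DsRed ratio, PSI derived from sequencing read proportions per bin multiplied by bin number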
TEST_CONDITIONS: c terminus: a fixed tail appended
READOUT_TYPE: protein stability index

{"MUTATION_ANNOTATION": "I21N", "READOUT_TYPE": "protein stability index", "OBS_VALUE": 3.41}
{"MUTATION_ANNOTATION": "Q10S", "READOUT_TYPE": "protein stability index", "OBS_VALUE": 3.58}
{"MUTATION_ANNOTATION": "I21A", "READOUT_TYPE": "protein stability index", "OBS_VALUE": 3.72}
{"MUTATION_ANNOTATION": "L19M", "READOUT_TYPE": "protein stability index", "OBS_VALUE": 3.15}
{"MUTATION_ANNOTATION": "K4E", "READOUT_TYPE": "protein stability index", "OBS_VALUE": 3.62}
{"MUTATION_ANNOTATION": "F16E", "READOUT_TYPE": "protein stability index", "OBS_VALUE": 4.36}
{"MUTATION_ANNOTATION": "N5T", "READOUT_TYPE": "protein stability index", "OBS_VALUE": 4.11}
{"MUTATION_ANNOTATION": "Q1A", "READOUT_TYPE": "protein stability index", "OBS_VALUE": 2.91}
{"MUTATION_ANNOTATION": "G20D", "READOUT_TYPE": "protein stability index", "OBS_VALUE": 3.74}
{"MUTATION_ANNOTATION": "L19W", "READOUT_TYPE": "protein stability index", "OBS_VALUE": 2.45}
{"MUTATION_ANNOTATION": "L2N", "READOUT_TYPE": "protein stability index", "OBS_VALUE": 4.36}
{"MUTATION_ANNOTATION": "T18Q", "READOUT_TYPE": "protein stability index", "OBS_VALUE": 3.24}
{"MUTATION_ANNOTATION": "L19A", "READOUT_TYPE": "protein stability index", "OBS_VALUE": 3.64}
{"MUTATION_ANNOTATION": "K23G", "READOUT_TYPE": "protein stability index", "OBS_VALUE": 3.17}
{"MUTATION_ANNOTATION": "D3T", "READOUT_TYPE": "protein stability index", "OBS_VALUE": 3.06}
{"MUTATION_ANNOTATION": "Q1D", "READOUT_TYPE": "protein stability index", "OBS_VALUE": 4.18}
{"MUTATION_ANNOTATION": "M15D", "READOUT_TYPE": "protein stability index", "OBS_VALUE": 3.68}
{"MUTATION_ANNOTATION": "K4C", "READOUT_TYPE": "protein stability index", "OBS_VALUE": 3}
{"MUTATION_ANNOTATION": "Q1L", "READOUT_TYPE": "protein stability index", "OBS_VALUE": 2.55}
{"MUTATION_ANNOTATION": "E11S", "READOUT_TYPE": "protein stability index", "OBS_VALUE": 2.62}
{"MUTATION_ANNOTATION": "N5P", "READOUT_TYPE": "protein stability index", "OBS_VALUE": 4.37}
{"MUTATION_ANNOTATION": "E11T", "READOUT_TYPE": "protein stability index", "OBS_VALUE": 3.13}
